inhibition by entry:
target: Cathepsin S (Homo sapiens) (UniProt P25774); experiment: blockers of CTSS protease activity – biochemical, compound mixtures (AID 501); details: recombinant cathepsin S, AMC dipeptide fluorescence, pooled mixtures; hits give high values;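 tested at 5 µM per compound within 10-compound mixtures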;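 note: 0% = enzyme without compound and 100% = blank without enzyme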
Sequence (P25774 115-331 limits assumed): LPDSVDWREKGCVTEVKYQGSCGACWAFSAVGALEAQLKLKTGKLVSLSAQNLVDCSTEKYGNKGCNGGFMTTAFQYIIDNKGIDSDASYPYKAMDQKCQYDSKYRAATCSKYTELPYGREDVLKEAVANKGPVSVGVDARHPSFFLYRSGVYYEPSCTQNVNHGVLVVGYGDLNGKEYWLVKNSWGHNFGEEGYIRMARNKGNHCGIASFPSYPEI
Screen size: about 62,000 compounds; about 35 (0.06%) were called active. This is one part of a sample in which actives are shown more often than they occur.

{"COMPOUND": "N#Cc1nc(N)nc(N(c2ccccc2)c2ccccc2)n1", "VALUE UNIT": "%", "inhibition": 49.2}
{"COMPOUND": "Cc1cccc(N2CCN(Cc3c(C)n(C)n(-c4ccccc4)c3=O)CC2)c1C", "VALUE UNIT": "%", "inhibition": -2.31}
{"COMPOUND": "CC(=O)Nc1cc2ccc(OC(C)=O)cc2oc1=O", "VALUE UNIT": "%", "inhibition": -31.5}
{"COMPOUND": "Cc1ccc(S(=O)(=O)N2CCCC2C(=O)NCc2ccco2)cc1 (stereo unspecified)", "VALUE UNIT": "%", "inhibition": 12.5}
{"COMPOUND": "O=C(CN1CCN(c2ncc(C(F)(F)F)cc2Cl)CC1)Nc1ccc2c(c1)OCO2", "VALUE UNIT": "%", "inhibition": 13.5}
{"COMPOUND": "CC(C)Nc1nc(N(c2ccccc2)c2ccccc2)nc(-n2ccnc2)n1", "VALUE UNIT": "%", "inhibition": -8.9}
{"COMPOUND": "CCN(CCCCOC(=O)c1ccc(OC)c(OC)c1)C(C)Cc1ccc(OC)cc1 (stereo unspecified)", "VALUE UNIT": "%", "inhibition": 14.3}
{"COMPOUND": "COc1ccc(C(c2nnnn2Cc2cccs2)N2CCN(c3ccccc3)CC2)cc1OC (stereo unspecified)", "VALUE UNIT": "%", "inhibition": -6.06}
{"COMPOUND": "O=C(COc1ncnc2ccccc12)NC(=O)NCc1ccccc1", "VALUE UNIT": "%", "inhibition": -8.35}
{"COMPOUND": "Cc1c(-c2nn(C)c(=O)c3ccccc23)oc2ccc(F)cc2c1=O", "VALUE UNIT": "%", "inhibition": 21.9}
{"COMPOUND": "CCOC(=O)N1CCC(NC(=O)CCc2cn(C)c3ccccc23)CC1", "VALUE UNIT": "%", "inhibition": -4.61}

###

target: Cathepsin S (Homo sapiens) (UniProt P25774); experiment: blockers of CTSS protease activity – biochemical, compound mixtures (AID 501); settings: recombinant cathepsin S, AMC dipeptide fluorescence, pooled mixtures;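 tested at 5 µM per compound within 10-compound mixtures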;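 note: 0% = enzyme without compound and 100% = blank without enzyme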
Among all 62,000 compounds or so, about 35 (0.06%) were called active. Rule as the data show it: active = inhibition above about 32% (passing the limit was not always enough); inconclusive = no clear call, values can overlap the other calls. This is one part of a sample in which actives are shown more often than they occur.
Possible outcomes: 1 = active, -1 = inactive

{"MOLECULE": "Cc1nnc(N(Cc2ccco2)C(=O)c2ccno2)s1", "TARGET DESC": "Cathepsin S (Homo sapiens) (UniProt P25774)", "CLASS LABEL": -1}
{"MOLECULE": "Cn1c(=NC(=O)CSCC(=O)N2CCCCC2)sc2ccccc21", "TARGET DESC": "Cathepsin S (Homo sapiens) (UniProt P25774)", "CLASS LABEL": -1}
{"MOLECULE": "CN1CCN(Cc2c(O)ccc3c2oc(=O)c2ccccc23)CC1", "TARGET DESC": "Cathepsin S (Homo sapiens) (UniProt P25774)", "CLASS LABEL": -1}
{"MOLECULE": "CSCCC(NS(=O)(=O)/C=C/c1ccccc1)C(=O)N1CCC(C)CC1 (configuration not stated)", "TARGET DESC": "Cathepsin S (Homo sapiens) (UniProt P25774)", "CLASS LABEL": -1}
{"MOLECULE": "CC(C)n1c(C(O)c2ccccc2)nc2ccccc21 (configuration not stated)", "TARGET DESC": "Cathepsin S (Homo sapiens) (UniProt P25774)", "CLASS LABEL": -1}
{"MOLECULE": "CCOC(=O)c1c(NC(=O)c2ccc(Br)o2)sc2c1CCCC2", "TARGET DESC": "Cathepsin S (Homo sapiens) (UniProt P25774)", "CLASS LABEL": -1}
{"MOLECULE": "CCOC(=O)CCCNC(=O)CN1C(=O)NC(CCc2ccccc2)C1=O (configuration not stated)", "TARGET DESC": "Cathepsin S (Homo sapiens) (UniProt P25774)", "CLASS LABEL": -1}
{"MOLECULE": "Cc1ccc(NC(=O)CS(=O)CC(=O)N(c2ccccc2)C(C)C(=O)NC2CCCC2)cc1 (configuration not stated)", "TARGET DESC": "Cathepsin S (Homo sapiens) (UniProt P25774)", "CLASS LABEL": -1}
{"MOLECULE": "COc1ccc(C(=O)Nc2ccc3c(c2)OCO3)cc1OC", "TARGET DESC": "Cathepsin S (Homo sapiens) (UniProt P25774)", "CLASS LABEL": -1}
{"MOLECULE": "O=C(NC(c1ccccc1)c1ccccc1)N1CCN(CCO)CC1", "TARGET DESC": "Cathepsin S (Homo sapiens) (UniProt P25774)", "CLASS LABEL": -1}
{"MOLECULE": "CCN(CC)P(=O)(/C(Cl)=C\\Nc1c(C)n(C)n(-c2ccccc2)c1=O)N(CC)CC", "TARGET DESC": "Cathepsin S (Homo sapiens) (UniProt P25774)", "CLASS LABEL": -1}
{"MOLECULE": "Cc1ccccc1NC(=O)CNc1ccccc1N1CCCCC1", "TARGET DESC": "Cathepsin S (Homo sapiens) (UniProt P25774)", "CLASS LABEL": -1}
{"MOLECULE": "CC(C)COC(=O)C1C2C=CC3(CN(C(C)c4ccc(Br)cc4)C(=O)C13)O2 (configuration not stated)", "TARGET DESC": "Cathepsin S (Homo sapiens) (UniProt P25774)", "CLASS LABEL": -1}
{"MOLECULE": "O=C(Nc1cccnc1)c1noc2c1CCCCC2", "TARGET DESC": "Cathepsin S (Homo sapiens) (UniProt P25774)", "CLASS LABEL": -1}
{"MOLECULE": "COC(=O)c1[nH]c2cccc(C)c2c1NC(=O)CN1CCCc2ccccc21", "TARGET DESC": "Cathepsin S (Homo sapiens) (UniProt P25774)", "CLASS LABEL": 1}
{"MOLECULE": "CCOC(=O)CSc1nnc(CNc2ccc(F)cc2)o1", "TARGET DESC": "Cathepsin S (Homo sapiens) (UniProt P25774)", "CLASS LABEL": -1}
{"MOLECULE": "CSc1sc(C)cc1C1C(C#N)=C(N)N(c2cccnc2)C2=C1C(=O)CCC2 (configuration not stated)", "TARGET DESC": "Cathepsin S (Homo sapiens) (UniProt P25774)", "CLASS LABEL": -1}
{"MOLECULE": "CCn1cc(C(=O)N2CCN(Cc3ccc4c(c3)OCO4)CC2)c2cc(OC)c(OC)cc2c1=O", "TARGET DESC": "Cathepsin S (Homo sapiens) (UniProt P25774)", "CLASS LABEL": -1}
{"MOLECULE": "O=C(CC(NS(=O)(=O)c1ccc(Cl)cc1)c1ccco1)NC1CCCC1 (configuration not stated)", "TARGET DESC": "Cathepsin S (Homo sapiens) (UniProt P25774)", "CLASS LABEL": -1}
{"MOLECULE": "CCc1c(C)nc(N)n2c(SCC(=O)N3CCN(c4ccccc4)CC3)nnc12", "TARGET DESC": "Cathepsin S (Homo sapiens) (UniProt P25774)", "CLASS LABEL": -1}
{"MOLECULE": "COc1ccc(C(=O)Cn2nnc(-c3ccc(N4CCOCC4)cc3)n2)cc1OC", "TARGET DESC": "Cathepsin S (Homo sapiens) (UniProt P25774)", "CLASS LABEL": -1}
{"MOLECULE": "O=C(Cn1nnc(-c2ccccc2)n1)NCc1ccccc1", "TARGET DESC": "Cathepsin S (Homo sapiens) (UniProt P25774)", "CLASS LABEL": -1}
{"MOLECULE": "CCC(C)Sc1nnc(-c2c[nH]c3ccccc23)n1CCOC (configuration not stated)", "TARGET DESC": "Cathepsin S (Homo sapiens) (UniProt P25774)", "CLASS LABEL": -1}
{"MOLECULE": "CCOc1ccc(CC(=O)Nc2ccc(S(=O)(=O)Nc3cc(C)on3)cc2)cc1OCC", "TARGET DESC": "Cathepsin S (Homo sapiens) (UniProt P25774)", "CLASS LABEL": -1}
{"MOLECULE": "CCOc1ccc2[nH]c(=O)c(CN(Cc3nnnn3Cc3ccccc3)CC3CCCO3)cc2c1 (configuration not stated)", "TARGET DESC": "Cathepsin S (Homo sapiens) (UniProt P25774)", "CLASS LABEL": -1}
{"MOLECULE": "CCOc1ccc(NC(=O)CSc2nc3c(c(=O)n2-c2ccccc2OC)SCC3)cc1", "TARGET DESC": "Cathepsin S (Homo sapiens) (UniProt P25774)", "CLASS LABEL": -1}
{"MOLECULE": "Cc1nnc(C)n1/N=C/c1ccc(C(C)C)cc1", "TARGET DESC": "Cathepsin S (Homo sapiens) (UniProt P25774)", "CLASS LABEL": -1}
